Source listed as patent US20240409599A1.

Target: T1, Human IL-18Rα extracellular domain (human, UniProt Q13478 22-329, biotinylated (site not stated))
T1 construct: also called IL-18 receptor
T1 sequence: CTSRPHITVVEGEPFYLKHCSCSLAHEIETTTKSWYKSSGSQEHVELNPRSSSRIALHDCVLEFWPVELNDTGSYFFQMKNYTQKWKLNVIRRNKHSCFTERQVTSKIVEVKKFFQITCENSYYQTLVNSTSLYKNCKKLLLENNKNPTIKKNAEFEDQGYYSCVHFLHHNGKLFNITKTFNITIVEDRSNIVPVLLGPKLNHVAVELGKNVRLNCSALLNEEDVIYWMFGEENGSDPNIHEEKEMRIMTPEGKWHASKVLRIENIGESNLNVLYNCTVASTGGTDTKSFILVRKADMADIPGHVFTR
Test: SPR, Biacore 8K, 37 C, biotinylated target on SA chip, single-cycle kinetics
measurement-label: koff (s⁻¹)

[[record]]
binder = "Human IL-18 hCS (ligand) YFGKLESKLSVIRNLNDQVLFIDQGNRPLFEDMTDSDSRDNAPRTIFIISMYKDSQPRGMAVTISVKSEKISTLSSENKIISFKEMNPPDNIKDTKSDIIFFQRSVPGHDNKMQFESSSYEGYFLASEKERDLFKLILKKEDELGDRSIMFTVQNED"
quantitative_result = "5.6e-05"

[[record]]
binder = "Human IL-18 S43C/S86C (ligand, Made in mammalian cells) YFGKLECKLSVIRNLNDQVLFIDQGNRPLFEDMTDSDSRDNAPRTIFIICMYKDSQPRGMAVTISVKSEKISTLSSENKIISFKEMNPPDNIKDTKSDIIFFQRSVPGHDNKMQFESSSYEGYFLASEKERDLFKLILKKEDELGDRSIMFTVQNED"
quantitative_result = 0.0241

[[record]]
binder = "Human IL-18 S46C/V189C (ligand, Made in mammalian cells) YFGKLESKLCVIRNLNDQVLFIDQGNRPLFEDMTDSDSRDNAPRTIFIISMYKDSQPRGMAVTISVKSEKISTLSSENKIISFKEMNPPDNIKDTKSDIIFFQRSVPGHDNKMQFESSSYEGYFLASEKERDLFKLILKKEDELGDRSIMFTCQNED"
quantitative_result = 0.054

